Target: ΔF508-CFTR (Homo sapiens, UniProt P13569, DEL508-508)
Construct: host or cells: CFBE41o-, doxycycline-inducible
Sequence (P13569 with tags, fused parts or gaps DEL508-508): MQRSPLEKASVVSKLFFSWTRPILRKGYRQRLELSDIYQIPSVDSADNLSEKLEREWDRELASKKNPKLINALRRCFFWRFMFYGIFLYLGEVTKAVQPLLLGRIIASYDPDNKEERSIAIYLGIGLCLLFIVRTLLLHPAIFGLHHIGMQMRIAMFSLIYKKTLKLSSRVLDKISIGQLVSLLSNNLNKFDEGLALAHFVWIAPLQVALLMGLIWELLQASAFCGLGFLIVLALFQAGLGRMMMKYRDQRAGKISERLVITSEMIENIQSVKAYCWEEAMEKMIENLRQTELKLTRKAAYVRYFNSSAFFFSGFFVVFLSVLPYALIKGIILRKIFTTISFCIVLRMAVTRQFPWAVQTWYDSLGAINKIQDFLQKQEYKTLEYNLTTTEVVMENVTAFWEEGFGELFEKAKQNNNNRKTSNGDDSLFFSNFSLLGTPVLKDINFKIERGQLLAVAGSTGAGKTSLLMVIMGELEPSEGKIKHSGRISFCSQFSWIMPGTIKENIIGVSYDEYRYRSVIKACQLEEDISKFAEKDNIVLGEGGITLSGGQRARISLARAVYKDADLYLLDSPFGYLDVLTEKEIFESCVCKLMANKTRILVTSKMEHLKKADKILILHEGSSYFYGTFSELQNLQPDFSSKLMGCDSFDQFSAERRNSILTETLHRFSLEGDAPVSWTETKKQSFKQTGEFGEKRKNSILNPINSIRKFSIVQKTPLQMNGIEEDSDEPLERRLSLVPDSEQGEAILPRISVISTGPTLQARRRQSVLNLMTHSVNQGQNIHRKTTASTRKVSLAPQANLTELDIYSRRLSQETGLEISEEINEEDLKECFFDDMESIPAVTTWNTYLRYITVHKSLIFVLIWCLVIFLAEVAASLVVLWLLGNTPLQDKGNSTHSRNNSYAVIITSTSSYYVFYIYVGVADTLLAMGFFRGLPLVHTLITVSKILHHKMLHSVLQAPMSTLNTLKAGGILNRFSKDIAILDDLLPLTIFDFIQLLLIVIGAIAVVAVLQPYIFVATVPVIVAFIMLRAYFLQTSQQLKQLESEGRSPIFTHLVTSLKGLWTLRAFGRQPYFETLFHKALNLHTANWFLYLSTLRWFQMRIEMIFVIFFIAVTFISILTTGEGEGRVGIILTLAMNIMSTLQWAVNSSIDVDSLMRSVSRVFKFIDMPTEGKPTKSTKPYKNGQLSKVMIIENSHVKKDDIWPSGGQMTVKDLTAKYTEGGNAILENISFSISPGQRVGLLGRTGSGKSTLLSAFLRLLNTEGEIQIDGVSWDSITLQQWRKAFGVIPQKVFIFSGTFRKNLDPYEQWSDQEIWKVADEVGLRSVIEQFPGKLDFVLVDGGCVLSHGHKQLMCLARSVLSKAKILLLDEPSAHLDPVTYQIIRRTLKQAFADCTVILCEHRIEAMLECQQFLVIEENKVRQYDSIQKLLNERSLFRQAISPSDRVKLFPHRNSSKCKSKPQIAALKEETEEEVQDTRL
Experiment: CFTR cell surface levels using HRP-tagged ΔF508-CFTR expressing CFBE cells, intrinsic corrector capacity
Type: cell-based
Conditions: HRP-tagged ΔF508-CFTR expressing CFBE cells; intrinsic corrector capacity (no co-corrector); 33° C., 20 hours; read-out: EC50
I'd be grateful if you could share measured pEC50 for these entries.
# pEC50 = -log10(concentration in molar units)

Record O=C(O)c1cc(N2CCC(COCc3ccccc3)CC2)c2c(C3CCC3)nn(-c3ccccc3)c2n1 , field pEC50: 6.18

Record CCOCC1(F)CCN(c2cc(C(=O)O)nc3c2c(C2CCC2)nn3-c2ccccc2)CC1 , field pEC50: 6.09

Record O=C(O)c1cc(N2CCN(C3CCC3)CC2)c2c(C3CCC3)nn(-c3ccccc3)c2n1 , field pEC50: 5.96

Record CN1CCC[C@]12C[C@@H](Oc1cc(C(=O)O)nc3c1c(C1CCC1)nn3-c1ccccc1)C2 , field pEC50: 5.97

====

Target: ΔF508-CFTR (Homo sapiens, UniProt P13569, DEL508-508)
Construct: host or cells: CFBE41o-, doxycycline-inducible
Test: CFTR cell surface levels using HRP-tagged ΔF508-CFTR expressing CFBE cells, in the presence of a co-corrector
Type: cell-based
Conditions: HRP-tagged ΔF508-CFTR expressing CFBE cells, in the presence of 3 μM co-corrector; read-out: EC50
I'd be grateful if you could share measured pEC50 for these entries.
# pEC50 = -log10(concentration in molar units)

Sample COCC1CCN(c2cc(C(=O)O)nc3c2c(C(C)C)nn3-c2ccnc(N3CCOCC3)n2)CC1 [compound 589] , system: ΔF508-CFTR (Homo sapiens, UniProt P13569, DEL508-508). Its pEC50 is 6.52

Sample CC(C)c1nn(-c2cccc(N3CCOCC3)c2)c2nc(C(=O)O)cc(-c3ccc(N(C)C)nc3)c12 [compound 89] , system: ΔF508-CFTR (Homo sapiens, UniProt P13569, DEL508-508). Its pEC50 is 5.91

Sample Cc1nn(-c2ccccc2)c2nc(C(=O)O)cc(-c3cnc(N4CCOCC4)nc3)c12 [compound 15] , system: ΔF508-CFTR (Homo sapiens, UniProt P13569, DEL508-508). Its pEC50 is 5.59

Sample COC(=O)N1CCN(c2ccc(-c3cc(C(=O)O)nc4c3c(C)nn4-c3ccccc3)cc2)CC1 [compound 70] , system: ΔF508-CFTR (Homo sapiens, UniProt P13569, DEL508-508). Its pEC50 is 6.19

Sample CN(C)c1ccc(-n2nc(C3CCC3)c3c(-c4ccc(N5CCOCC5)cc4)cc(C(=O)O)nc32)cc1 [compound 357] , system: ΔF508-CFTR (Homo sapiens, UniProt P13569, DEL508-508). Its pEC50 is 6.09

Sample O=C(O)c1cc(-c2ccc(CN3CCOCC3)cc2)c2c(OC3CCC3)nn(C3CCCCC3)c2n1 [compound 808] , system: ΔF508-CFTR (Homo sapiens, UniProt P13569, DEL508-508). Its pEC50 is 6.58

====

Biological target: ΔF508-CFTR (Homo sapiens, UniProt P13569, DEL508-508)
Construct: host or cells: CFBE41o-, doxycycline-inducible
Test: CFTR cell surface levels using HRP-tagged ΔF508-CFTR expressing CFBE cells, intrinsic corrector capacity
Type: cell-based
Details: HRP-tagged ΔF508-CFTR expressing CFBE cells; intrinsic corrector capacity (no co-corrector); 33° C., 20 hours
From the text: Measuring CFTR Cell Surface Levels Using HRP-Tagged AF508-CFTR Expressing CFBE Cells The HRP-tagged AF508-CFTR cell assay measures the expression of CFTR-ΔF508 at the plasma membrane. […] When HRP-tagged AF508-CFTR is present at the plasma membrane, the HRP enzyme activity can be measured. The amount of CFTR-ΔF508 that can be rescued to the plasma membrane is correlated with the amount of functional enzyme that can be measured. […]
I'd be grateful if you could share measured % Activation for these entries.
Give just the number in %; leave the unit off.

Record O=C(O)c1cc(OCC2CCC(F)(F)C2)c2c(C3CCC3)nn(-c3ccccc3)c2n1 (centres unmarked) [compound 435] , field % Activation: 116.7

Record O=C(O)c1cc(OC[C@@H](F)C2CCOCC2)c2c(C3CCC3)nn(-c3ccccc3)c2n1 [compound 415] , field % Activation: 168.85

Record CC(C)Oc1nn(C2CCCCC2)c2nc(C(=O)O)cc(-c3ccc(C(=O)N4CCC(N(C)C)CC4)cc3)c12 [compound 861] , field % Activation: 31.08

Record O=C(O)c1cc(N2C[C@H](O)[C@@H](O)C2)c2c(C3CCC3)nn(-c3ccccc3)c2n1 [compound 446] , field % Activation: 20.695

Record COCC1(F)CCN(c2cc(C(=O)O)nc3c2c(C2CCC2)nn3-c2ccccc2)CC1 [compound 463] , field % Activation: 157.75

Record CN1CC[C@@H](Oc2cc(C(=O)O)nc3c2c(C2CCC2)nn3-c2ccccc2)C1 [compound 650] , field % Activation: 45.88

Record N#CC1CCN(c2ccc(-c3cc(C(=O)O)nc4c3c(OC3CCNC3)nn4-c3ccccc3)cn2)CC1 (centres unmarked) [compound 550] , field % Activation: 4.775

Record CS(=O)(=O)N1CCN(c2cc(C(=O)O)nc3c2c(C2CCC2)nn3-c2ccccc2)CC1 [compound 523] , field % Activation: 136.2

====

I'd be grateful if you could share measured EC50 for these entries.
Molecular target: ΔF508-CFTR (Homo sapiens, UniProt P13569, DEL508-508)
Construct: host or cells: CFBE41o-, doxycycline-inducible
Test: CFTR cell surface levels using HRP-tagged ΔF508-CFTR expressing CFBE cells, intrinsic corrector capacity
Type: cell-based
Conditions: HRP-tagged ΔF508-CFTR expressing CFBE cells; intrinsic corrector capacity (no co-corrector); 33° C., 20 hours; read-out: EC50
Give just the number in nM; leave the unit off.

Record CC(C)Oc1nn(C2CCCCC2)c2nc(C(=O)O)cc(-c3ccc(N4CCN(C)CC4)cc3)c12 , field EC50: 330

Record CC1(COc2cc(C(=O)O)nc3c2c(C2CCC2)nn3-c2ccccc2)COC1 , field EC50: 400

Record O=C(O)c1cc(N2CCN(CCCO)CC2)c2c(C3CCC3)nn(-c3ccccc3)c2n1 , field EC50: 3340

Record O=C(O)c1cc(N2CCCOCC2)c2c(C3CCC3)nn(-c3ccccc3)c2n1 , field EC50: 1150

Record COC1CN(c2cc(C(=O)O)nc3c2c(C2CCC2)nn3-c2ccccc2)C1 , field EC50: 1840

Record CC(=O)N1CC[C@H]2CN(c3cc(C(=O)O)nc4c3c(C3CCC3)nn4-c3ccccc3)CC[C@H]21 (single isomer, unassigned) , field EC50: 3330

Record CCN(CC)CC1(N2CC(Oc3cc(C(=O)O)nc4c3c(C3CCC3)nn4-c3ccccc3)C2)COC1 , field EC50: 3330

Record COCC1CCN(c2cc(C(=O)O)nc3c2c(C2CCC2)nn3-c2ccnc(OC)c2)CC1 , field EC50: 230

Record CC(=O)N1CC[C@@H]2CN(c3cc(C(=O)O)nc4c3c(C3CCC3)nn4-c3ccccc3)CC[C@@H]21 (single isomer, unassigned) , field EC50: 3330

Record CN(C)CCCOc1cc(C(=O)O)nc2c1c(C1CCC1)nn2-c1ccccc1 , field EC50: 3330

Record O=C(O)c1cc(OCCN2CCC3(CC2)OCCO3)c2c(C3CCC3)nn(-c3ccccc3)c2n1 , field EC50: 1160

Record CC(C)c1nn(-c2ccc(F)cc2)c2nc(C(=O)O)cc(N3CCN(C(=O)N(C)C)CC3)c12 , field EC50: 1670

Record CC(C)c1nn(-c2ccc(F)cc2)c2nc(C(=O)O)cc(N3CCN(CCO)CC3)c12 , field EC50: 5000

Record O=C(O)c1cc(N2CCC(CN3CC[C@H](F)C3)CC2)c2c(C3CCC3)nn(-c3ccccc3)c2n1 , field EC50: 187

Record O=C(O)c1cc(N2CCC(N3CCN(C4CC4)CC3)CC2)c2c(C3CCC3)nn(-c3ccccc3)c2n1 , field EC50: 245

Record O=C(O)c1cc(N2CCC(N3CCOCC3)CC2)c2c(C3CCC3)nn(-c3ccnc(C4CCOCC4)c3)c2n1 , field EC50: 3330

Record O=C(O)c1cc(OCCC2CC(F)(F)C2)c2c(C3CCC3)nn(-c3ccccc3)c2n1 , field EC50: 1020

Record CO[C@H]1C[C@@H](c2nn(-c3ccccc3)c3nc(C(=O)O)cc(-c4ccc(N5CCC(C#N)CC5)nc4)c32)C1 , field EC50: 1290

Record O=C(O)c1cc(N2CCC3(CC2)CCN(C2CCC2)CC3)c2c(C3CCC3)nn(-c3ccc(F)cc3)c2n1 , field EC50: 304

Record O=C(O)c1cc(N2CCC(CN3CCCCC3)CC2)c2c(C3CCC3)nn(-c3ccccc3)c2n1 , field EC50: 1670

Record CN1C(=O)CO[C@H]2CN(c3cc(C(=O)O)nc4c3c(C3CCC3)nn4-c3ccccc3)C[C@@H]21 , field EC50: 1110

Record O=C(O)c1cc(N2CCC(CN3CCN4C[C@@H](F)C[C@H]4C3)CC2)c2c(C3CCC3)nn(-c3ccccc3)c2n1 , field EC50: 269

Record O=C(O)c1cc(N2CCC(N3CCC(C(F)(F)F)C3)CC2)c2c(C3CCC3)nn(-c3ccc(F)cc3)c2n1 (stereo not drawn) , field EC50: 113

Record CC(C)COC1CCN(c2cc(C(=O)O)nc3c2c(C(C)C)nn3-c2ccc(F)cc2)CC1 , field EC50: 403

Record CN(C)CC(C)(C)COc1cc(C(=O)O)nc2c1c(C1CCC1)nn2-c1ccccc1 , field EC50: 617

Record O=C(O)c1cc(N2CCC(CN3CCCC(F)(F)C3)CC2)c2c(C3CCC3)nn(-c3ccccc3)c2n1 , field EC50: 115

Record CC(C)Oc1cc(-n2nc(C3CCC3)c3c(N4CCC(N5CCOCC5)CC4)cc(C(=O)O)nc32)ccn1 , field EC50: 197

Record N#CC1CCN(c2ccc(-c3cc(C(=O)O)nc4c3c(C3CCC3)nn4-c3ccnc(N4CCOCC4)c3)cn2)CC1 , field EC50: 1250

Record O=C(O)c1cc(N2CCC3(CC2)CC(N2CCCC2)CO3)c2c(C3CCC3)nn(-c3ccc(F)cc3)c2n1 (stereo not drawn) , field EC50: 637

Record CN1CCN(CCCOc2cc(C(=O)O)nc3c2c(C2CCC2)nn3-c2ccccc2)CC1 , field EC50: 3330
